molecular target: hMDR1 (Homo sapiens, UniProt P08183); construct: purchased Pharm Tox, Netherlands; host or cells: HEK293 cells (membrane vesicles); assay: Inhibition of hMDR1-mediated 3H-NMQ uptake, inside-out membrane vesicles; assay type: biochemical; details: human, probe 3H-NMQ (N-methyl-quinidine), 0.01 µM, 2 mM iohexol; substrate 0.01 µM 3H-NMQ; median (95% CI); read-out: Inhibitory effect (% reduction of specific activity)
Sequence (P08183 whole entry): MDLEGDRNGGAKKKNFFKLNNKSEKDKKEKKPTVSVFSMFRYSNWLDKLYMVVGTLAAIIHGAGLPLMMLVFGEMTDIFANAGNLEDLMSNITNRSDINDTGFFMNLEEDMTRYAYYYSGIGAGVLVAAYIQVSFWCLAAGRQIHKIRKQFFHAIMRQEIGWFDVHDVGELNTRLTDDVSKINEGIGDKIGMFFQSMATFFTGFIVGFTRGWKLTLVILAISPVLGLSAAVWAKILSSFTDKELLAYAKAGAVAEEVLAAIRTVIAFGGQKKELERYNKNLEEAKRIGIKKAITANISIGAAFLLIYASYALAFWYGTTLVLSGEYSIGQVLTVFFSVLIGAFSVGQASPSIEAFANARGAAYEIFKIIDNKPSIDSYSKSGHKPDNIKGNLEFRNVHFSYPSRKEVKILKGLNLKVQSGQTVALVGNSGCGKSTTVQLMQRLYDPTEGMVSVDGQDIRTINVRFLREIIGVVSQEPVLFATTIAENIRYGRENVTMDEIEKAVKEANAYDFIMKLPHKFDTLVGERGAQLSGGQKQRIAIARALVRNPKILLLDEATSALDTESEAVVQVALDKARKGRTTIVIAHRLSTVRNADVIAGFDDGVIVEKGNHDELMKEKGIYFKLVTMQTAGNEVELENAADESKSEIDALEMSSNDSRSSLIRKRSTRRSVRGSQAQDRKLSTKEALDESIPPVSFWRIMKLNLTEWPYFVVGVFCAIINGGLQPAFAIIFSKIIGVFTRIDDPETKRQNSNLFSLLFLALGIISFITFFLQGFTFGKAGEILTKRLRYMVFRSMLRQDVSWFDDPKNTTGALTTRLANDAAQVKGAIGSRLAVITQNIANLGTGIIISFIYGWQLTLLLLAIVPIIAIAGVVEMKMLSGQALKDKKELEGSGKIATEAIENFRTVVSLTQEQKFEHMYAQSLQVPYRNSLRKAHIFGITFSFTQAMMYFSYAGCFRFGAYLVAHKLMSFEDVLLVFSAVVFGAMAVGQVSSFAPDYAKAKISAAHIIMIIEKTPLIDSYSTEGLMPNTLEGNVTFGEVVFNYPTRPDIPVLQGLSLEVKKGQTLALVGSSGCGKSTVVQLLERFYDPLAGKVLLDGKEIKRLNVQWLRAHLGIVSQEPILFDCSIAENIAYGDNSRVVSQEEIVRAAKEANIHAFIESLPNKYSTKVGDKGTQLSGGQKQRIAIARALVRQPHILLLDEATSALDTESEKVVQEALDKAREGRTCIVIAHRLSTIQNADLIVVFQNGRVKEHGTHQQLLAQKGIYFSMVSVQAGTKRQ
Measured Endpoint: inhibition at 1 min, 2 mM (%)
Respond with the bare value in %.

The value of inhibition at 1 min, 2 mM recorded for CC(=O)N(CC(O)CO)c1c(I)c(C(=O)NCC(O)CO)c(I)c(C(=O)NCC(O)CO)c1I (stereo not shown) [iohexol] when tested on hMDR1 (Homo sapiens, UniProt P08183) reads -4.9

Cited source: paper PMC11788587
